# ASSAYED TARGET: T1, human CD22 (d1 to d7 domain according to NP_001762.2) (human, UniProt P20273 20-687)
# T1 construct: domain: d1 to d7 domain; also called human CD22-gly; Siglec-2
# MEASUREMENT NOTES: SPR; mAb supernatant captured on protein A chip, human CD22 injected
REPORTED METRIC: koff (s⁻¹)
Form entry: value (s⁻¹) — number only.

For the binder shown here, TNT77 (antibody, human IgG1, kappa, V domains shown) VH: EVQLVESGGGLVQPGGSLRLSCAASGFAFSIYDMSWVRQAPGKGLEWVAYISSGGGTTYYPDTVKGRFTISRDNSKNTLYLQMNSLRAEDTAVYYCARHSGYGTHWGVLFAYWGRGTLVTVSS VL: DIQMTQSPSSLSASVGDRVTITCRASQSISSYLNWYQQKPGKAPKLLIYAASSLQSGVPSRFSGSGSGTDFTLTISSLQPEDFATYYCQQGNTLPWTFGQGTKLEIKR , give the reported koff.
0.00207

For the binder shown here, TNT83 (antibody, human IgG1, kappa, V domains shown) VH: EVQLVESGGGLVQPGGSLRLSCAASGFTFSSYEMNWVRQAPGKGLEWVSYISSSGSTIYYADSVKGRFTISRDNAKNSLYLQMNSLRAEDTAVYYCARHSGYGTHWGVLFAYWGRGTLVTVSS VL: EIVLTQSPATLSLSPGERATLSCRASQDIHGYLNWYQQKPGQAPRLLIYYTSILHSGIPARFSGSGPGTDFTLTISSLEPEDFAVYYCQQGNTLPWTFGGGTKLEIKR , give the reported koff.
0.0016

For the binder shown here, TNT75 (antibody, human IgG1, kappa, V domains shown) VH: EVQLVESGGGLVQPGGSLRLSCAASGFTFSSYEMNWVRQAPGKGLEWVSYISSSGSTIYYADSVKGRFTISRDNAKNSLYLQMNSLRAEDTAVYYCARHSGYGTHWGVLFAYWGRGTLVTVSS VL: DIQMTQSPSSVSASVGDRVTITCRASQDIHGYLAWYQQKPGKAPKLLIYYTSSLQSGVPSRFSGSGSGTDFTLTISSLQPEDFATYYCQQGNTLPWTFGQGTKLEIKR , give the reported koff.
0.0084
